- targetOrTestSystem: human kisspeptin receptor (Homo sapiens (Human), UniProt Q969F8)
- Sequence (Q969F8 whole entry): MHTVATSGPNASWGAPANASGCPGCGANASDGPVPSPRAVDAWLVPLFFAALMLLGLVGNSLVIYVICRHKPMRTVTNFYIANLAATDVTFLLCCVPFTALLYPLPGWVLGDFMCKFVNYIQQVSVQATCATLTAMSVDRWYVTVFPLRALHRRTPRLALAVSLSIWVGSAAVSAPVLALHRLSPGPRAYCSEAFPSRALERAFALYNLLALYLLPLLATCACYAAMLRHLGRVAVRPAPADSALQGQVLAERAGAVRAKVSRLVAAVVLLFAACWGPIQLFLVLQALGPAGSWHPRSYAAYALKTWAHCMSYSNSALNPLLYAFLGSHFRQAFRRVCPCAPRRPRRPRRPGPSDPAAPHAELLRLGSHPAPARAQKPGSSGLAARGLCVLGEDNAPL
- assay: Human KISS1R binding assay (membrane competition binding)
- settings: 90 min at room temperature; competition with 0.2 nM [125I]-metastin (45-54); Flp-In T-Rex 293 kisspeptin membranes; metal complexes nonradioactive Ga, In, Lu; read-out: hKiSSR Binding Ki (90 min)
pKi: −log10 of the molar value. Square brackets hold non-standard residues; d marks the D form. Peptide text beside a SMILES is read from it. * marks the point of attachment. DOTA = O=C(O)CN1CCN(CC(=O)O)CCN(CC(=O)*)CCN(CC(=O)O)CC1; Gly(N-(3-F-4-Me-benzyl)) = Cc1ccc(CNCC(=O)*)cc1F; Gly(N-3-F-4-Me-benzyl) = Cc1ccc(CNCC(=O)O)cc1F; 2Nal = N[C@@H](Cc1ccc2ccccc2c1)C(=O)O; 4Pal = N[C@@H](Cc1ccncc1)C(=O)O; Api = NC1(C(=O)O)CCNCC1; PEG2 = NCCOCCOCCC(=O)O; Ahx = NCCCCCC(=O)O; azaGly = NNC(=O)O; Sar = CNCC(=O)O
parameter: pKi

Exercise: Tell me the measured pKi of Cc1ccc(CNCC(=O)N2CCC(NC(=O)[C@H](CC(C)C)NC(=O)NNC(=O)[C@H](Cc3ccccc3)NC(=O)CCCCCNC(=O)[C@H](Cc3ccc4ccccc4c3)NC(=O)[C@@H](Cc3ccc(O)cc3)NC(=O)CN3CCN(CC(=O)O)CCN(CC(=O)O)CCN(CC(=O)O)CC3)(C(=O)N[C@@H](Cc3ccncc3)C(N)=O)CC2)cc1F [Compound 286] ({DOTA}-[dY][2Nal][Ahx]F[azaGly]L[Api](Gly(N-(3-F-4-Me-benzyl)))[4Pal]-NH2) , please.
Solution: > 8.00

Exercise: Reported pKi for Cc1ccc(CNCC(=O)N2CCC(NC(=O)[C@H](CC(C)C)NC(=O)NNC(=O)[C@H](Cc3ccccc3)NC(=O)[C@@H](CC(N)=O)NC(=O)CN3CCN(CC(=O)O)CCN(CC(=O)O)CCN(CC(=O)O)CC3)(C(=O)N[C@@H](Cc3c[nH]c4ccccc34)C(N)=O)CC2)cc1F [Compound 21] ({DOTA}-[dN]F[azaGly]L[Api](Gly(N-(3-F-4-Me-benzyl)))W-NH2) : what is it?
Solution: 7.00 to 8.00

Exercise: # lookup: pKi of CNCC(=O)N1CCC(NC(=O)[C@H](CC(C)C)NC(=O)NNC(=O)[C@H](Cc2ccccc2)NC(=O)[C@@H](NC(=O)[C@H](CC(N)=O)NC(=O)[C@H](CCCCNC(=O)CN2CCN(CC(=O)O)CCN(CC(=O)O)CCN(CC(=O)O)CC2)NC(=O)[C@@H](Cc2ccc(O)cc2)NC(=O)CCOCCOCCNC(=O)CNCc2ccc(C)c(F)c2)[C@@H](C)O)(C(=O)N[C@H](Cc2c[nH]c3ccccc23)C(N)=O)CC1 [Compound 359] (H-[Gly(N-3-F-4-Me-benzyl)][PEG2][dY]K(DOTA)NTF[azaGly]L[Api](Sar)[dW]-NH2)
Solution: > 8.00
